- assayTarget: hsst1 (Homo sapiens, UniProt P30872)
- Sequence (P30872 whole entry): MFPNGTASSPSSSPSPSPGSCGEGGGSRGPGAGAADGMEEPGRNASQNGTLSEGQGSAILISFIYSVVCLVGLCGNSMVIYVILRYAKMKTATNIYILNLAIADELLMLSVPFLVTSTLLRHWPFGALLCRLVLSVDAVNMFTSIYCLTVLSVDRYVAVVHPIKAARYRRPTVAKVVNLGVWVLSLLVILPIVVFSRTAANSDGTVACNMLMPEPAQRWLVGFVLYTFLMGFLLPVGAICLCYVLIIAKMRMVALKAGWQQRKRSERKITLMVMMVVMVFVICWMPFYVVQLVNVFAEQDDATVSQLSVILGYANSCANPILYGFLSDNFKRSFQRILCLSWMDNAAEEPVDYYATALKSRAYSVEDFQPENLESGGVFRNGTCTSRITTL
Where a SMILES comes first, the peptide text is derived from it. Bridges are numbered along the chain shown (N, C = ends). [ ]: non-standard residue; d: D form. Phe(4-Cl) = N[C@@H](Cc1ccc(Cl)cc1)C(=O)O; dNMeW = CN[C@H](Cc1c[nH]c2ccccc12)C(=O)O; 2Nal = N[C@@H](Cc1ccc2ccccc2c1)C(=O)O; 3Pal = N[C@@H](Cc1cccnc1)C(=O)O; NMeK = CN[C@@H](CCCCN)C(=O)O
assayEndpoint: Ki (nM)
Answers are plain numbers, in nM.

Ask: Fill blank: measured Ki of the compound C[C@@H](O)[C@@H]1NC(=O)[C@H](CCCCN)N(C)C(=O)[C@@H](Cc2c[nH]c3ccccc23)N(C)C(=O)[C@H](Cc2cccnc2)NC(=O)[C@H](NC(=O)[C@@H](N)Cc2ccc(Cl)cc2)CSSC[C@@H](C(=O)N[C@@H](Cc2ccc3ccccc3c2)C(N)=O)NC1=O [Peptide 11] (H-[Phe(4-Cl)][dC][3Pal][dNMeW][NMeK]TC[2Nal]-NH2; disulfide 2-7) is ____.
Reply: 1000
